# SYSTEM_TESTED: Voltage-dependent N-type calcium channel subunit alpha-1B (Homo sapiens) (UniProt Q00975)
# Sequence (Q00975 whole entry, looked up): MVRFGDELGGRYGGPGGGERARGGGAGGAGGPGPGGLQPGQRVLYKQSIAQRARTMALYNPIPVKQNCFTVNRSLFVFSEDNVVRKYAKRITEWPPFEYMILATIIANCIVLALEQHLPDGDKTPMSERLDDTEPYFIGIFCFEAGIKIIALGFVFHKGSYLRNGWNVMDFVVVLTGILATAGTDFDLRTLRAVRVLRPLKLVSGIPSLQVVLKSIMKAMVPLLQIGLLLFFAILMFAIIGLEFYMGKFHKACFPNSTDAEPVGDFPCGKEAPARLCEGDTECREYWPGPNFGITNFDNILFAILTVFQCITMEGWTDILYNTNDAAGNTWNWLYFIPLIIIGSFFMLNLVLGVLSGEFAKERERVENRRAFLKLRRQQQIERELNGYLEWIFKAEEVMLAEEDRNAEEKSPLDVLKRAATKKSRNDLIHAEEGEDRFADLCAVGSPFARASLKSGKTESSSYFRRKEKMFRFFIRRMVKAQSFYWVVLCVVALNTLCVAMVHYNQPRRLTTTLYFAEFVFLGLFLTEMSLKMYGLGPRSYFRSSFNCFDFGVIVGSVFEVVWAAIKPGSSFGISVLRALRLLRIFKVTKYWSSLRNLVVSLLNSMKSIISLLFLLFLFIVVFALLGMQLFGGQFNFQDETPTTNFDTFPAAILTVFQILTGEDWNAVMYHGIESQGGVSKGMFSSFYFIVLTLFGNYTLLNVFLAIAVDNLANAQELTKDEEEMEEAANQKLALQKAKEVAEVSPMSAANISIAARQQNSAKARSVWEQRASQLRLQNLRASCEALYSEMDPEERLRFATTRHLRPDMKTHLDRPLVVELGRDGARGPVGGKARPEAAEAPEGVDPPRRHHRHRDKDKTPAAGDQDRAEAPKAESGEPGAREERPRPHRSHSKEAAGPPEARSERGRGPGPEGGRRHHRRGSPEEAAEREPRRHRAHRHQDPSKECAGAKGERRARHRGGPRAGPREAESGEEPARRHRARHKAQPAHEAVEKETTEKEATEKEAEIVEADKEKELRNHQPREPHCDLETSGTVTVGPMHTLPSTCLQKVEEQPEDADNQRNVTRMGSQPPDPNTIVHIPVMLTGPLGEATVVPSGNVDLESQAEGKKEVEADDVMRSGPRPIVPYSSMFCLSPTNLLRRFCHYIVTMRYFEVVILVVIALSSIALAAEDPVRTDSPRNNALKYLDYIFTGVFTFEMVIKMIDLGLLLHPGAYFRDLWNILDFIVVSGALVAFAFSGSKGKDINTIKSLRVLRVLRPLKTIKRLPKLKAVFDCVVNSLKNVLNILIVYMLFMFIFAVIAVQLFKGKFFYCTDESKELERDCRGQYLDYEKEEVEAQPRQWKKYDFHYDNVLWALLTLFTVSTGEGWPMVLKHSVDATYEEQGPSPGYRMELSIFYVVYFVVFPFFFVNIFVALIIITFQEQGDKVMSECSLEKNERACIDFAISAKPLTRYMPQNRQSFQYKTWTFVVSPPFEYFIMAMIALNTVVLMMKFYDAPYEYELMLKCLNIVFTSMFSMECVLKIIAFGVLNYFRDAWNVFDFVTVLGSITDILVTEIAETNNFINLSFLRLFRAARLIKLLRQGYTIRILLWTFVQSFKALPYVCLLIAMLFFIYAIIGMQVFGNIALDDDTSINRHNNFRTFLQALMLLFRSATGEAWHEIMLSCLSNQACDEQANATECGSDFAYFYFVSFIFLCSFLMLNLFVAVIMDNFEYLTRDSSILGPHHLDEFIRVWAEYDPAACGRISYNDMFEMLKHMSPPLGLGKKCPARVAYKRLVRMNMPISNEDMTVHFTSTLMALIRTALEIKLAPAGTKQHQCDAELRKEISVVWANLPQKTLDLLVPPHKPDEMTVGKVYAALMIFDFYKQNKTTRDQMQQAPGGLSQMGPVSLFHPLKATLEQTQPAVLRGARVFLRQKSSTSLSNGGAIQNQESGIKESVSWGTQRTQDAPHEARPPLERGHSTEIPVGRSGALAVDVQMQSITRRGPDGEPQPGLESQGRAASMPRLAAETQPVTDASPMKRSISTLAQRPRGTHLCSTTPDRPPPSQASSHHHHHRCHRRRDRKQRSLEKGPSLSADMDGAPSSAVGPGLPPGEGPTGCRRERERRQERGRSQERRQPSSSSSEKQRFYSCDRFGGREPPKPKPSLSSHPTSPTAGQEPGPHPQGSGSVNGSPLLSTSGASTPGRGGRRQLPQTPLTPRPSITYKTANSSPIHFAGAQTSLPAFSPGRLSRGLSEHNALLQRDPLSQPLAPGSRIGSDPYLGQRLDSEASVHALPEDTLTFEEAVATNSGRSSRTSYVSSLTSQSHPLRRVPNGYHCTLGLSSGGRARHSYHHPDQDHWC
# ASSAY_NAME: disruptors of CaV2.2 binding to Mint1 – biochemical, HTRF (AID 2073)
# CONDITION_INFO: HTRF protein-protein interaction, Mint1-CaV2.2; at 20 µM; stronger effect = higher value
The campaign covered roughly 290,000 compounds. About 570 (0.2%) were called active. Another 1% or so got no clear call; they are omitted. What follows is part of a selection rich in actives, with near analogues and random picks from the rest.
Catalogue of inhibition readings, one per entry.
MEASURED_PROPERTY: inhibition (%)

In [3]: df
Out[3]:
                                   compound                             system_tested  data_value
0  O=C(NN1C(=O)C2C(C1=O)C1C=CC2C12CC2)c1ccncc1 (stereo unspecified)  Voltage-dependent N-type calcium channel subunit alpha-1B (Homo sapiens) (UniProt Q00975)           6
1   Cn1c(=O)c2c(n3cnnc13)-c1ccccc1CC21CCCC1  Voltage-dependent N-type calcium channel subunit alpha-1B (Homo sapiens) (UniProt Q00975)         3.5
2  Cc1ccc(-c2cc(-c3ccco3)c3c(N)c(C(=O)NN)oc3n2)cc1  Voltage-dependent N-type calcium channel subunit alpha-1B (Homo sapiens) (UniProt Q00975)        55.5
3  NNC(=O)c1oc2nc(-c3ccccc3)cc(-c3ccccc3)c2c1N  Voltage-dependent N-type calcium channel subunit alpha-1B (Homo sapiens) (UniProt Q00975)        18.4
4  COc1ccc(CNC(=O)Cn2nc([N+](=O)[O-])c(Br)c2C)cc1  Voltage-dependent N-type calcium channel subunit alpha-1B (Homo sapiens) (UniProt Q00975)         2.9
5  NNC(=O)c1oc2nc(-c3ccco3)cc(-c3ccco3)c2c1N  Voltage-dependent N-type calcium channel subunit alpha-1B (Homo sapiens) (UniProt Q00975)        59.1
